Known Kd of a selection of compounds
TARGET OF ASSAY: Nuclear receptor ROR-gamma (Homo sapiens)
Sequence (P51449 whole entry): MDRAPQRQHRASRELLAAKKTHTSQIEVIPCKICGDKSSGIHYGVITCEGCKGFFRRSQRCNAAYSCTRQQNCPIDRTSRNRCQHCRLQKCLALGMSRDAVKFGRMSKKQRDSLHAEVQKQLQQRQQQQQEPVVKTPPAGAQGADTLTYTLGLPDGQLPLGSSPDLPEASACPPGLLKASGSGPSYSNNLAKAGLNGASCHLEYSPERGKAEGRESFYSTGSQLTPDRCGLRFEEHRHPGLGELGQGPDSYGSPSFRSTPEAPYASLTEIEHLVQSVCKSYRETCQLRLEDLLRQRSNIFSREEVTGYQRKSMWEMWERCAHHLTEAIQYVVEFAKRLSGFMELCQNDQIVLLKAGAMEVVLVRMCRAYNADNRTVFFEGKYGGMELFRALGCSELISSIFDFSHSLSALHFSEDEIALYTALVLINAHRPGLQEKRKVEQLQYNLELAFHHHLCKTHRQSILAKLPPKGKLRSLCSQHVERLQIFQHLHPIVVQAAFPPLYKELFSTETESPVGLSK
ASSAY PROTOCOL: Binding affinity to CM5 chip-immobilized recombinant ROR-gamma LBD (unknown origin) assessed as dissociation constant by SPR analysis
Remember to put the unit after the number in your answer.

Sample answers from the record:
>  <STRUCTURE>
C=C(C)[C@@H]1CC[C@]2(C(=O)NCCN(C)CCN(C)C)CC[C@]3(C)[C@H](CC[C@@H]4[C@@]5(C)CC[C@H](O)C(C)(C)[C@@H]5CC[C@]43C)[C@@H]12

>  <TARGET OF ASSAY>
Nuclear receptor ROR-gamma (Homo sapiens)

>  <Kd>
1.88 µM

$$$$
>  <STRUCTURE>
C=C(C)[C@@H]1CC[C@]2(C(=O)NCCCN(C)C)CC[C@]3(C)[C@H](CC[C@@H]4[C@@]5(C)C[C@H](O)C(C)(C)[C@@H]5CC[C@]43C)[C@@H]12

>  <TARGET OF ASSAY>
Nuclear receptor ROR-gamma (Homo sapiens)

>  <Kd>
3.06 µM

$$$$

*Q* Item C=C(C)[C@@H]1CC[C@]2(C(=O)NC3CCNCC3)CC[C@]3(C)[C@H](CC[C@@H]4[C@@]5(C)CC[C@H](O)C(C)(C)[C@@H]5CC[C@]43C)[C@@H]12 has what recorded Kd?
*A* 1.96 µM

====

TARGET OF ASSAY: Nuclear receptor ROR-gamma (Homo sapiens, UniProt P51449)
ASSAY PROTOCOL: Binding affinity to CM5 chip-immobilized recombinant ROR-gamma LBD (unknown origin) assessed as dissociation constant by SPR analysis
Known pKd of a selection of molecules
# log scale: pKd equals minus log10 of the concentration in mol/L

Sample answers from the record:
>  <STRUCTURE>
CN(C)CCCNC(=O)[C@]12CC[C@@H](C3(C)CC3)[C@@H]1[C@H]1CC[C@@H]3[C@@]4(C)CC[C@H](O)C(C)(C)[C@@H]4CC[C@@]3(C)[C@]1(C)CC2

>  <TARGET OF ASSAY>
Nuclear receptor ROR-gamma (Homo sapiens, UniProt P51449)

>  <PROPERTY NAME>
pKd

>  <MEASURED RESULT>
6.62

$$$$
>  <STRUCTURE>
C=C(C)[C@@H]1CC[C@]2(C(=O)NCc3cc[nH]n3)CC[C@]3(C)[C@H](CC[C@@H]4[C@@]5(C)CC[C@H](O)C(C)(C)[C@@H]5CC[C@]43C)[C@@H]12

>  <TARGET OF ASSAY>
Nuclear receptor ROR-gamma (Homo sapiens, UniProt P51449)

>  <PROPERTY NAME>
pKd

>  <MEASURED RESULT>
6.11

$$$$
>  <STRUCTURE>
C=C(C)[C@@H]1CC[C@]2(C(=O)NC[C@H]3CCCN3C)CC[C@]3(C)[C@H](CC[C@@H]4[C@@]5(C)CC[C@H](O)C(C)(C)[C@@H]5CC[C@]43C)[C@@H]12

>  <TARGET OF ASSAY>
Nuclear receptor ROR-gamma (Homo sapiens, UniProt P51449)

>  <PROPERTY NAME>
pKd

>  <MEASURED RESULT>
6.38

$$$$

*Q* Item C=C(C)[C@@H]1CC[C@]2(C(=O)NCc3cncs3)CC[C@]3(C)[C@H](CC[C@@H]4[C@@]5(C)CC[C@H](O)C(C)(C)[C@@H]5CC[C@]43C)[C@@H]12 has what recorded pKd?
*A* 6.11

*Q* Further, for C=C(C)[C@@H]1CC[C@]2(C(=O)O)CC[C@]3(C)[C@H](CC[C@@H]4[C@@]5(C)CC[C@H](O)C(C)(C)[C@@H]5CC[C@]43C)[C@@H]12 ?
*A* 5.57

====

TARGET OF ASSAY: Nuclear receptor ROR-gamma (Homo sapiens)
Sequence (P51449 whole entry): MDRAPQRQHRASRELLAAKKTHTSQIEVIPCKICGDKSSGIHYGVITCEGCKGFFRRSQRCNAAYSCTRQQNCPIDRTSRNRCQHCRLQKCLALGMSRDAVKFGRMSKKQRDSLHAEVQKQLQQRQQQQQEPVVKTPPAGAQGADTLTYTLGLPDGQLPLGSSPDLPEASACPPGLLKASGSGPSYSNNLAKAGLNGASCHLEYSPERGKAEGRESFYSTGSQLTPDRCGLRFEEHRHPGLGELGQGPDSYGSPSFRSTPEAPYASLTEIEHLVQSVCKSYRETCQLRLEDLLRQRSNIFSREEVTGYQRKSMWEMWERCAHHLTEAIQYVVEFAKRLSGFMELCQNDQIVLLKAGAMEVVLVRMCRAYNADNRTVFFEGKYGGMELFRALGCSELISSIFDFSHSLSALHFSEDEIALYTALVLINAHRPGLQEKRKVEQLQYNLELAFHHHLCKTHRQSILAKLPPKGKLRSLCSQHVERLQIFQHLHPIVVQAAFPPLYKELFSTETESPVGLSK
ASSAY PROTOCOL: Binding affinity to ROR-gamma LBD (unknown origin) assessed as dissociation constant by ITC analysis
PROPERTY NAME: Kd (µM)
Reply with just the number (in µM).

*Q* Item C=C(C)[C@@H]1CC[C@]2(C(=O)O)CC[C@]3(C)[C@H](CC[C@@H]4[C@@]5(C)CC[C@H](O)C(C)(C)[C@@H]5CC[C@]43C)[C@@H]12 [BETULINIC ACID] has what recorded Kd?
*A* 3.39

====

ASSAY PROTOCOL: Clearance in ICR mouse at 3 mg/kg, iv
Assay type: ADME, organism-based
STATED CONDITIONS: in vivo
PROPERTY NAME: clearance (mL/min/kg)
Reply with just the number (in mL/min/kg).

*Q* Item C=C(C)[C@@H]1CC[C@]2(C(=O)NCCCN(C)C)CC[C@]3(C)[C@H](CC[C@@H]4[C@@]5(C)CC[C@H](O)C(C)(C)[C@@H]5CC[C@]43C)[C@@H]12 has what recorded clearance?
*A* 16.5

====

ASSAY PROTOCOL: Oral bioavailability in ICR mouse at 10 mg/kg
Assay type: ADME, organism-based
STATED CONDITIONS: in vivo
PROPERTY NAME: bioavailability (%)
Reply with just the number (in %).

*Q* Item C=C(C)[C@@H]1CC[C@]2(C(=O)NCCCN(C)C)CC[C@]3(C)[C@H](CC[C@@H]4[C@@]5(C)CC[C@H](O)C(C)(C)[C@@H]5CC[C@]43C)[C@@H]12 has what recorded bioavailability?
*A* 16.8

====

ASSAY PROTOCOL: Half life in ICR mouse at 10 mg/kg, po
Assay type: ADME, organism-based
STATED CONDITIONS: in vivo
PROPERTY NAME: half-life (h)
Reply with just the number (in h).

*Q* Item C=C(C)[C@@H]1CC[C@]2(C(=O)NCCCN(C)C)CC[C@]3(C)[C@H](CC[C@@H]4[C@@]5(C)CC[C@H](O)C(C)(C)[C@@H]5CC[C@]43C)[C@@H]12 has what recorded half-life?
*A* 11.9

====

Test system: HPAF-II
ASSAY PROTOCOL: Antitumor activity against human HPAF-II cells measured after 72 hrs
Format: functional, cell-based
PROPERTY NAME: pIC50
# log scale: pIC50 equals minus log10 of the concentration in mol/L

>  <MOLECULE>
C=C(C)[C@@H]1CC[C@]2(C(=O)NC[C@@H]3CCCN3C)CC[C@]3(C)[C@H](CC[C@@H]4[C@@]5(C)CC[C@H](O)C(C)(C)[C@@H]5CC[C@]43C)[C@@H]12

>  <pIC50>
6.49

$$$$
>  <MOLECULE>
C=C(C)[C@@H]1CC[C@]2(C(=O)O)CC[C@]3(C)[C@H](CC[C@@H]4[C@@]5(C)CC[C@H](O)C(C)(C)[C@@H]5CC[C@]43C)[C@@H]12

>  <pIC50>
4.90

$$$$
>  <MOLECULE>
C=C(C)[C@@H]1CC[C@]2(C(=O)NC3CCCN(C)CC3)CC[C@]3(C)[C@H](CC[C@@H]4[C@@]5(C)CC[C@H](O)C(C)(C)[C@@H]5CC[C@]43C)[C@@H]12 (stereo not given in full)

>  <pIC50>
6.96

$$$$

*Q* // map C=C(C)[C@@H]1CC[C@]2(C(=O)NCCN(CC)CCO)CC[C@]3(C)[C@H](CC[C@@H]4[C@@]5(C)CC[C@H](O)C(C)(C)[C@@H]5CC[C@]43C)[C@@H]12 to recorded pIC50 (system: HPAF-II)
*A* 6.66

*Q* Further, for C=C1C[C@]2(C)[C@H]3CC[C@@H]4[C@H]5[C@H](C(=C)C)CC[C@]5(C(=O)NCCCN(C)C)CC[C@@]4(C)[C@]3(C)CC[C@H]2C(C)(C)C1=O ?
*A* 6.12
